- Tested on: Mycobacterium tuberculosis
- assay.notes: Antimycobacterial activity against multi drug resistant Mycobacterium tuberculosis 16833 assessed as reduction in bacterial growth by MABA analysis
- Type: functional
measured.attribute: MIC (µM)
Report the figure in µM without appending any unit label.

Some solved entries appear below for comparison.
structure	experimental.value
O=C(NCc1ccc(N2CCN(c3ccc(F)cc3)CC2)cc1)c1ccc([N+](=O)[O-])o1	7.61
NNC(=O)c1ccncc1	0.06
O=C(NCc1ccc(N2CCN(c3ccc(F)cc3F)CC2)cc1)c1ccc([N+](=O)[O-])o1	4.16

Then this compound:
Endpoint output: MIC of COc1ccc(N2CCN(c3ccc(CNC(=O)c4ccc([N+](=O)[O-])o4)cc3)CC2)cc1 . Value?
9.16
